The reported measurements were obtained from PubChem BioAssay (NCI).

# Tested on: U251 CNS
# MEASUREMENT_PROTOCOL: NCI-60 one-dose screen, 48 h (100 = growth as untreated, 0 = no growth, -100 = all killed)
# CONDITION_NOTES: 10 µM unless noted
The panel holds about 83,000 compounds, 20% with a hit somewhere; the sample as a whole holds those more often. Activity calls are given as the source filed them. The calls were made as follows: active = growth percent below 10; inactive = the rest.
RECORDED_ENDPOINT: growth

Query: Consider the compound shown here: O=C(CCN1CCCC1)Nc1ccc2c(NCCCc3ccccc3)c3ccccc3nc2c1 What is its recorded growth?
Reply: -58.9% (active)

Query: Please look up its growth: C[C@@H](Nc1ncnc2ccc(-c3cnc(N)nc3)cc12)c1ccc(F)cc1
Reply: 80.9% (inactive)

Query: Which measured growth value corresponds to CN(C)c1ccc(Nc2c3ccccc3nc3cc(NC(=O)CCN4CCCC4)ccc23)cc1 ?
Reply: -48.6% (active)

Query: Data request, read-out growth, for O=C1Nc2cc(-c3ccc(NC(=O)c4ccccc4)cc3)ccc2/C1=C/c1ccc[nH]1
Reply: 90.2% (inactive)

Query: Fill in the blank: the reported growth of CC(Oc1ccc(C(=O)O)cc1C(F)(F)F)c1ccc(Oc2ccccc2)cn1 (centres undefined) is ____.
Reply: 94.4% (inactive)

Query: Given COc1ccc(C/C(=C(\C)c2ccc(OCCN3CCCC3)cc2)c2ccc(OCCN3CCCC3)cc2)cc1 , state its recorded growth.
Reply: -39.7% (active)

Query: I would be grateful if you could share the reported growth for CC[C@]12C=CCN3CC[C@@]4(c5cc(NC(=O)CCC(=O)O[C@H]6CC[C@H]7[C@@H]8CCC9=CC(=O)CC[C@@H]9[C@H]8CC[C@]67C)c(OC)cc5N(C)[C@H]4[C@@](O)(C(=O)OC)[C@@H]1OC(C)=O)[C@@H]32 .
Reply: 74.1% (inactive)

Query: Look up growth for this compound: CC(=O)Oc1ccc(/C=N/NC(N)=S)nc1
Reply: 51.7% (inactive)

Query: Look up growth for this compound: N#C/C(=C\c1ccc([N+](=O)[O-])s1)c1nc2cc(Cl)ccc2s1
Reply: 1.57% (active)

----------
# Tested on: PC-3 prostate
# MEASUREMENT_PROTOCOL: NCI-60 one-dose screen, 48 h (100 = growth as untreated, 0 = no growth, -100 = all killed)
# CONDITION_NOTES: 10 µM unless noted
The panel holds about 83,000 compounds, 20% with a hit somewhere; the sample as a whole holds those more often.
Label Condition met when growth < 70%; otherwise Condition not met.

Query: Dear reviewer, please state whether Cc1c2cc[nH]c(=O)c2c(C)c2c1[nH]c1cc(OCCN3CCN(C)CC3)ccc12 has growth strictly beneath 70%.
Reply: Condition met

Query: Report whether reported growth is lower than 70% (strictly) for O=C1c2ccc3c4c(ccc(c24)C(=O)N1CCCNCc1ccccc1F)C(=O)N(CCCNCc1ccccc1F)C3=O
Reply: Condition met

Query: Would you kindly verify if growth of O=C(Nc1ccccc1C(=O)N/N=C(\c1ccccc1)c1ccccn1)c1ccc(F)cc1 is strictly less than 70%?
Reply: Condition met

Query: Determine if O=C(NCCc1ccccc1)Nc1ccc2cc3ccc(NC(=O)NCCc4ccccc4)cc3nc2c1 shows growth strictly lower than 70%.
Reply: Condition met

Query: Is growth of O=C(NCCNc1nccc(-c2c(-c3cccc(F)c3)nc3sccn23)n1)c1ccc(Cl)cc1 strictly below 70%?
Reply: Condition not met

Query: Is growth of O=C1c2cccc3c(-c4ccc5c(c4)ncn5C4CCCCC4)ccc(c23)C(=O)N1c1nc2ccccc2s1 strictly below 70%?
Reply: Condition not met

Query: Say whether its growth is strictly beneath 70%. Entry: C=C(C)[C@@H]1CC[C@]2(C(=O)N[C@H](CO)Cc3ccccc3)CC[C@]3(C)[C@H](CC[C@@H]4[C@@]5(C)CCCNC(C)(C)[C@@H]5CC[C@]43C)[C@@H]12
Reply: Condition met

Query: For Oc1ccc(C(c2ccc(O)cc2)c2ccc(Br)cn2)cc1 , is the recorded growth below the cut-off of 70%?
Reply: Condition met

Query: Please determine if CN1CCC(=C(c2ccccc2)c2ccccc2)C(c2ccccc2)C1 (configuration not stated) is below 70% in terms of growth.
Reply: Condition not met

Query: Please indicate whether the reported growth of C[C@H]1[C@H]2[C@H]3CC[C@@H]4[C@@]5(C)CC[C@H](O)C(C)(C)[C@@H]5CC[C@@]4(C)[C@]3(C)CC[C@]23CO[C@]1(C)[C@@H](C(=O)/C=C\c1ccco1)C3 is strictly below 70%.
Reply: Condition not met

Query: Please indicate whether the reported growth of N#CC1C(C#N)C(C(=O)c2ccc(Br)cc2)N2c3ccccc3C=CC12 (configuration not stated) is strictly below 70%.
Reply: Condition not met

Query: For O=C(/C(=C\c1ccc([N+](=O)[O-])cc1)S(=O)Cc1ccc(Cl)cc1)c1ccc(Cl)cc1 (configuration not stated) , is the recorded growth below the cut-off of 70%?
Reply: Condition met

Query: growth under 70%? Item: C/C(=N\NC(=O)CSc1nc2ccccc2c(=O)n1CCc1ccc(S(N)(=O)=O)cc1)c1ccccn1
Reply: Condition met

Query: Criterion: growth strictly below 70%. Is it met by COc1cc(/C=N/NC(=O)c2cnn3c2NC(c2ccccc2)C3)ccc1Oc1ccccc1 (configuration not stated) ?
Reply: Condition met

Query: Strictly below 70% in growth? COc1ccc(CNCCN2C(=O)c3ccc4c5c(ccc(c35)C2=O)C(=O)N(CCNCc2ccc(OC)c(OC)c2OC)C4=O)c(OC)c1OC
Reply: Condition met

Query: Decide: growth of Cc1nnc2c(Cc3ccccc3)nc3ccccc3n12 strictly below 70%?
Reply: Condition not met

Query: growth strictly < 70% for this compound? NC1[C@H](c2c[nH]c3ccccc23)c2c([nH]c3ccccc23)[C@H]1c1c[nH]c2ccccc12 (some centres not stated)
Reply: Condition not met
